Tested On: IRAK4 (Homo sapiens)
Test Details: Degradation of IRAK4 in THP1 cells, Western blot
Format: cell-based
Parameters: Degradation of IRAK4 in THP1 by compound; host or cells: THP-1
Experimental Context: maximum degradation rate, THP-1 cells, 24 hours of incubation; read-out: Dmax
Quantity Kind: Dmax

Ask: Tell me the measured Dmax of Cn1c(-c2ccc(N3CCC(CN4CCN(c5ccc(-n6cc(NC(=O)c7cccc(C(F)(F)F)n7)c(C(N)=O)n6)cc5)CC4)C3)cc2)nn(C2CCC(=O)NC2=O)c1=O (stereo not drawn) , please.
Reply: > 60%

Ask: State the recorded Dmax for this entry: COc1ccc(C(=O)N2CCC(CCN3CCN(c4ccc(N5C=C(NC(=O)c6cccc(C(F)(F)F)n6)C(=C=O)N5)cc4)CC3)C2)cc1N1CCC(=O)NC1=O (stereo not drawn)
Reply: > 60%

Ask: Quick one: Dmax for COc1ccc(C(=O)N2CCC3(CC2)CC(Cc2ccc(-n4cc(NC(=O)c5cccc(C(F)(F)F)n5)c(C(N)=O)n4)cc2)C3)cc1N1CCC(=O)NC1=O ?
Reply: > 60%

---

Provide the reported DC50 of each item.
Tested On: IRAK4 (Homo sapiens, UniProt Q9NWZ3)
Sequence (Q9NWZ3 1-460): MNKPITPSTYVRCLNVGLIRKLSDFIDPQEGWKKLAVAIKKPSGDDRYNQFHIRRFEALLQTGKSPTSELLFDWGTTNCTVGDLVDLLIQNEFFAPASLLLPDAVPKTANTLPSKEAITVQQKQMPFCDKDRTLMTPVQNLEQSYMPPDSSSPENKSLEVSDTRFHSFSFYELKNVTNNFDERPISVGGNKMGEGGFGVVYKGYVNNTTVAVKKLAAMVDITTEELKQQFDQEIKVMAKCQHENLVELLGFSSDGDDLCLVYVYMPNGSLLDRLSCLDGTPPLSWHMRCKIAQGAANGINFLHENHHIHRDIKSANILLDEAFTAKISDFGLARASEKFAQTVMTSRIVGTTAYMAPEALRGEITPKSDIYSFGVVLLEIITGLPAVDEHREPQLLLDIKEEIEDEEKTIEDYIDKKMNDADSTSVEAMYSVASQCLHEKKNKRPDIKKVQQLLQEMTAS
Test Details: Degradation of IRAK4 in THP1 cells, Western blot
Type: cell-based
Design: Degradation of IRAK4 in THP1 by compound; host or cells: THP-1
Experimental Context: THP-1 cells, 24 hours of incubation, IRAK4 protein by Western blot; read-out: DC50

Ask: Using the record for Cn1c(=O)n(C2CCC(=O)NC2=O)c2cccc(N3CCC4(CC3)CC(NC(=O)c3ccc(-n5cc(NC(=O)c6cccc(C(F)(F)F)n6)c(C(N)=O)n5)cc3)C4)c21 (centres unmarked) , report its DC50.
Reply: < 100 nM

Ask: I am curious: what DC50 value has been reported for N#Cc1ccnc(C(=O)Nc2cn(-c3ccc(N4CCN(CC5CCN(c6ccc(NC7CCC(=O)NC7=O)cc6F)CC5)CC4)cc3)nc2C(N)=O)c1 (centres unmarked) ?
Reply: > 1000 nM

Ask: Looking for the measured DC50 of Cn1c(=O)n(C2CCC(=O)NC2=O)c2cccc(N3CCN(CCN4CCN(c5ccc(N6C=C(NC(=O)c7cccc(C(F)(F)F)n7)C(=C=O)N6)cc5)CC4)CC3)c21 (centres unmarked) , can you help?
Reply: < 100 nM

Ask: Endpoint output: DC50 of Cn1c(-c2ccc(N3CCC(CN4CCN(c5ccc(-n6cc(NC(=O)c7cccc(C(F)(F)F)n7)c(C(N)=O)n6)cc5)CC4)CC3)cc2)nn(C2CCC(=O)NC2=O)c1=O (centres unmarked) . Value?
Reply: 100 to 1000 nM

Ask: Sample CC(C)(O)c1nn(-c2ccc(N3CCN(CC4CCN(c5ccc(NC6CCC(=O)NC6=O)cc5F)CC4)CC3)cc2)cc1NC(=O)c1cncc(C#N)c1 (centres unmarked) — what was its DC50?
Reply: > 1000 nM
